# measured on: human His-PIM2 [23-299] (Homo sapiens)
# Construct: purified human His-PIM2 [23-299] enzyme; His (N); host or cells: E. coli
# experiment: PIM2 in-vitro mobility shift assay (Caliper LC3000, FL-Ahx-Bad phosphorylation)
# Format: biochemical
# experimental conditions: 1.5 h; percent inhibition at 0.3 uM compound; read-out: PIM2 % I at 0.3 uM
Counter-ions that a name gives are not always drawn.
Collected inhibition at 0.3 µM values appear next to each entry.

Consider the following illustrative entries.
>  <compound>
CN(C)[C@H]1CCN(c2ccc(C(F)(F)F)cc2C=C2SC(=O)NC2=O)C1 [Example 84H]

>  <inhibition at 0.3 µM>
67%

$$$$
>  <compound>
NC(=O)c1ccc(N2CCC[C@H](N)C2)c(/C=C2\SC(=O)NC2=O)c1 [Example 122AF, hydrochloride]

>  <inhibition at 0.3 µM>
87.9%

$$$$
>  <compound>
CC(=O)Nc1ccc(N2CCC(N(C)C)C2)c(/C=C2\SC(=O)NC2=O)c1 (stereo not shown) [Example 131B]

>  <inhibition at 0.3 µM>
< 5%

$$$$

Kindly note: human His-PIM2 [23-299] (Homo sapiens), CN(C)[C@H]1CCN(c2ccc(Cl)cc2C=C2SC(=O)NC2=O)C1 [Example 84I] , inhibition at 0.3 µM value reported: 82.7%

* * *

Collected inhibition at 0.3 µM values appear next to each entry.
# measured on: human His-PIM2 [23-299] (Homo sapiens)
# Construct: purified human His-PIM2 [23-299] enzyme; His (N); host or cells: E. coli
# experiment: PIM2 in-vitro mobility shift assay (Caliper LC3000, FL-Ahx-Bad phosphorylation)
# Assay type: biochemical
# experimental conditions: 1.5 h; percent inhibition at 0.3 uM compound; read-out: PIM2 % I at 0.3 uM
# Source text: PIM2 In-Vitro Mobility Shift Assay One may determine the activity of purified human His-PIM2 [23-299] enzyme in-vitro using a mobility shift assay on a Caliper LC3000 reader (Caliper, Mass.), which measures fluorescence of a phosphorylated and unphosphorylated FL-Ahx-Bad (FITC-(AHX)RSRHSSYPAGT-COOH, Primm 200606-00289, Primm Biotech, Mass.) and calculates a ratiometric value to determine percent turnover. […]
Where a name gives a salt, the structure may show the parent alone.
Write down the numeric answer in % and omit the unit.

Consider the following illustrative entries.
>  <molecule>
O=C1NC(=O)/C(=C/c2ccccc2OCCO)S1 [Example 60]

>  <inhibition at 0.3 µM (%)>
11.3

$$$$
>  <molecule>
N[C@H]1CCN(c2ccccc2/C=C2\SC(=O)NC2=O)C1 [Example 122X, hydrochloride]

>  <inhibition at 0.3 µM (%)>
67.1

$$$$
>  <molecule>
CN(C)C1CCN(c2ccccc2/C=C2\SC(=O)NC2=O)C1 (centres unmarked) [Example 48]

>  <inhibition at 0.3 µM (%)>
41.3

$$$$

// next entry
response.value for CC(=O)NCC(=O)N[C@H]1CCN(c2c(Cl)cccc2/C=C2\SC(=O)NC2=O)C1 [Example 147] (field: inhibition at 0.3 µM) = 36.4

* * *

# measured on: human His-PIM2 [23-299] (Homo sapiens, UniProt Q9P1W9)
# Construct: purified human His-PIM2 [23-299] enzyme; His (N); host or cells: E. coli
# Sequence (Q9P1W9 23-299): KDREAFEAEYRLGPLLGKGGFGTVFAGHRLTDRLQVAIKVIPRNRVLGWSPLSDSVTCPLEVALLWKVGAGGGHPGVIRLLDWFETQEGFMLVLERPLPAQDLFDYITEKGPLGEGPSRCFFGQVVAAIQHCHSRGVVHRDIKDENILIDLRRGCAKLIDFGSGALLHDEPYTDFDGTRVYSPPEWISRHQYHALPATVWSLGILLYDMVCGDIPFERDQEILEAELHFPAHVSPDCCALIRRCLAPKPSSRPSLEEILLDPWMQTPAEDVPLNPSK
# experiment: PIM2 in-vitro mobility shift assay (Caliper LC3000, FL-Ahx-Bad phosphorylation)
# Type: biochemical
# experimental conditions: 1.5 h; percent inhibition at 0.3 uM compound; read-out: PIM2 % I at 0.3 uM
# Source text: PIM2 In-Vitro Mobility Shift Assay One may determine the activity of purified human His-PIM2 [23-299] enzyme in-vitro using a mobility shift assay on a Caliper LC3000 reader (Caliper, Mass.), which measures fluorescence of a phosphorylated and unphosphorylated FL-Ahx-Bad (FITC-(AHX)RSRHSSYPAGT-COOH, Primm 200606-00289, Primm Biotech, Mass.) and calculates a ratiometric value to determine percent turnover. […]
Structures can show the parent of a compound that is named as a salt.
Use 20% as the dividing line for inhibition at 0.3 µM, with the line itself on the Condition met side and lower values as Condition not met.

>  <compound>
O=C1NC(=O)/C(=C/c2ccc3ncccc3c2)S1 [Example 77, trifluoroacetate]

>  <group label>
Condition met

$$$$

Challenge: Check the entry "CN(C)C1CCN(c2ccccc2/C=C2\SC(=O)NC2=O)CC1" : does inhibition at 0.3 µM equal or exceed 20%?
Response given: Condition met

Just for reference, patent US8901307B2 is where these values come from.
